Attribution: the supplement of paper PMC9732359

- experimentalProtocol: protein stability index of a GFP-peptide fusion (yeast GPS) (PSI 1-4); higher = more stable; sorted into four equal gates, so the index is relative within each strain
- experimentalContext: san1∆
Binning rule for recorded protein stability index: bottom end = under 2, midrange = from 2 up to 3, top end = 3 and over

As a guide, the following entries are already answered.
{"sequenceCode": "YREAPVIYRGPEPSHID [RET1]", "classAssignment": "top end"}
{"sequenceCode": "ATEKKSSSPLAMSETLS [PRE8]", "classAssignment": "midrange"}

Bin this entry: YRFFKKISEDPVKALNE [SNF12] midrange

Bin this entry: MFQSQSQLQPQPQPQPQ [YDL088C/ASM4] midrange
